I'd be grateful if you could share measured Papp at 5 h, 10 µM for these entries.
Method notes: Permeability of the compound in PBS at pH 7.4 at 10 uM after 5 hrs by LC-MS/MS analysis
Format: ADME
Experimental parameters: not told, read-out: permeability
Answer in ×10⁻⁶ cm/s, number only, no unit symbol.

Reported Papp at 5 h, 10 µM ( CN(C)CCOc1ccc(/C(=C(/CCC(F)F)c2ccccc2)c2ccc(O)cc2)cc1.Cl ) = 0.54

Reported Papp at 5 h, 10 µM ( CCN(CC)CCOc1ccc(/C(=C(/CCCO)c2ccccc2)c2ccc(O)cc2)cc1.Cl ) = 1.02

Reported Papp at 5 h, 10 µM ( CNCCOc1ccc(/C(=C(/CCCO)c2ccccc2)c2ccc(O)cc2)cc1.Cl ) = 0.03

Reported Papp at 5 h, 10 µM ( CN(C)CCCOc1ccc(/C(=C(/CCCO)c2ccccc2)c2ccc(O)cc2)cc1.Cl ) = 0.36

Reported Papp at 5 h, 10 µM ( Cc1ccc(/C(=C(\CCCO)c2ccccc2)c2ccc(OCCN(C)C)cc2)cc1.Cl ) = 9.94

Reported Papp at 5 h, 10 µM ( CN(C)CCOc1ccc(/C(=C(/CCCO)c2ccccc2)c2ccc(O)cc2)cc1.Cl ) = 0.43

Reported Papp at 5 h, 10 µM ( CN(C)CCOc1ccc(/C(=C(/CCCF)c2ccccc2)c2ccc(O)cc2)cc1.Cl ) = 2.12

Reported Papp at 5 h, 10 µM ( CN(C)CCOc1ccc(/C(=C(/CCCO)c2ccccc2)c2ccc(Br)cc2)cc1.Cl ) = 6.52

----------
I'd be grateful if you could share measured activity at 10 µM for these entries.
Assayed target: UniProt:P10635
Sequence (P10635 whole entry): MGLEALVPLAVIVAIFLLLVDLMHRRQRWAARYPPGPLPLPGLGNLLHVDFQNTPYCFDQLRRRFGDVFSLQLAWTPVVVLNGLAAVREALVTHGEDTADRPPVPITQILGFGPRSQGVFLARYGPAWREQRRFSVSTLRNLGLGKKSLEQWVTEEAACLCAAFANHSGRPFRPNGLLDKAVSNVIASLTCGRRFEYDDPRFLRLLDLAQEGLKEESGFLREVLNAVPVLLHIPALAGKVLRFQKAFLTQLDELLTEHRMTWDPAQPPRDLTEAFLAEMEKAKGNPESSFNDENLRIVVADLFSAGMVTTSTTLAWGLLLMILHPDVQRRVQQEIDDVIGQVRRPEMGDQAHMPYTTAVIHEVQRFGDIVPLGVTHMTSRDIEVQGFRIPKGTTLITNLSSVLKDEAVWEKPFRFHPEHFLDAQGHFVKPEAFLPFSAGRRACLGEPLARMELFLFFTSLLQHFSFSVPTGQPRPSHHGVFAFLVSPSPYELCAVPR
Method notes: Inhibition of CYP2D6 in human liver microsomes assessed as remaining activity by measuring dextromethorphan O-demethylase activity at 10 uM pre-incubated for 5 mins followed by NADPH regenerating system addition by LC-MS/MS analysis relative to control
Type: ADME
Experimental parameters: probe dextromethorphan (O-demethylation), read-out: Activity

Reported activity at 10 µM ( CN(C)CCOc1ccc(/C(=C(/CCC(F)F)c2ccccc2)c2ccc(O)cc2)cc1.Cl ) = 12%

Reported activity at 10 µM ( CN(C)CCOc1ccc(/C(=C(/CCCO)c2ccccc2)c2ccc(O)cc2)cc1.Cl ) = 82%

Reported activity at 10 µM ( CN(C)CCOc1ccc(/C(=C(/CCCF)c2ccccc2)c2ccc(O)cc2)cc1.Cl ) = > 100%

Reported activity at 10 µM ( Cc1ccc(/C(=C(\CCCO)c2ccccc2)c2ccc(OCCN(C)C)cc2)cc1.Cl ) = > 100%

Reported activity at 10 µM ( CN(C)CCOc1ccc(/C(=C(/CCCO)c2ccccc2)c2ccc(Br)cc2)cc1.Cl ) = 99%

Reported activity at 10 µM ( CNCCOc1ccc(/C(=C(/CCCO)c2ccccc2)c2ccc(O)cc2)cc1.Cl ) = 89%

Reported activity at 10 µM ( CN(C)CCCOc1ccc(/C(=C(/CCCO)c2ccccc2)c2ccc(O)cc2)cc1.Cl ) = 93%

Reported activity at 10 µM ( CCN(CC)CCOc1ccc(/C(=C(/CCCO)c2ccccc2)c2ccc(O)cc2)cc1.Cl ) = 98%

----------
Assayed target: CYP1A2 (Homo sapiens)
Sequence (P05177 whole entry): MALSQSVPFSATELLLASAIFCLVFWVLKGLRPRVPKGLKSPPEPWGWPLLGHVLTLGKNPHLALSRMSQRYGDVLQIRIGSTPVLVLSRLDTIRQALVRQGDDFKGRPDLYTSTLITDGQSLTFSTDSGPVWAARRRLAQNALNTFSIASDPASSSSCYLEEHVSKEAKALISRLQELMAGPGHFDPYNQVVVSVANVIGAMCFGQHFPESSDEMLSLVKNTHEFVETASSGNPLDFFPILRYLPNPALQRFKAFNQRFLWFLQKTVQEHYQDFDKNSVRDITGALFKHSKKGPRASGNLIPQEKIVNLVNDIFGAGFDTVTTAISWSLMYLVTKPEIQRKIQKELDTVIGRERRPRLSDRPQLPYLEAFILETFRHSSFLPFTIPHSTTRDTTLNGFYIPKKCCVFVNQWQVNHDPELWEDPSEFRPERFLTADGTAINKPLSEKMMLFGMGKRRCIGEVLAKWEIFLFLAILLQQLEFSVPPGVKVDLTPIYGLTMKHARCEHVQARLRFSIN
Method notes: Inhibition of CYP1A2 in human liver microsomes assessed as remaining activity by measuring phenacetin O-deethylase activity at 10 uM pre-incubated for 5 mins followed by NADPH regenerating system addition by LC-MS/MS analysis relative to control
Assay type: ADME
Experimental parameters: probe phenacetin (O-deethylation), read-out: Activity
I'd be grateful if you could share measured activity at 10 µM for these entries.
Answer in %, number only, no unit symbol.

Reported activity at 10 µM ( CN(C)CCCOc1ccc(/C(=C(/CCCO)c2ccccc2)c2ccc(O)cc2)cc1.Cl ) = 96

Reported activity at 10 µM ( CCN(CC)CCOc1ccc(/C(=C(/CCCO)c2ccccc2)c2ccc(O)cc2)cc1.Cl ) = 82

Reported activity at 10 µM ( CN(C)CCOc1ccc(/C(=C(/CCCO)c2ccccc2)c2ccc(O)cc2)cc1.Cl ) = 84

Reported activity at 10 µM ( CNCCOc1ccc(/C(=C(/CCCO)c2ccccc2)c2ccc(O)cc2)cc1.Cl ) = 91

Reported activity at 10 µM ( CN(C)CCOc1ccc(/C(=C(/CCC(F)F)c2ccccc2)c2ccc(O)cc2)cc1.Cl ) = 14

----------
I'd be grateful if you could share measured IC50 for these entries.
Assayed target: Estrogen-related receptor gamma (Homo sapiens)
Sequence (P62508 whole entry): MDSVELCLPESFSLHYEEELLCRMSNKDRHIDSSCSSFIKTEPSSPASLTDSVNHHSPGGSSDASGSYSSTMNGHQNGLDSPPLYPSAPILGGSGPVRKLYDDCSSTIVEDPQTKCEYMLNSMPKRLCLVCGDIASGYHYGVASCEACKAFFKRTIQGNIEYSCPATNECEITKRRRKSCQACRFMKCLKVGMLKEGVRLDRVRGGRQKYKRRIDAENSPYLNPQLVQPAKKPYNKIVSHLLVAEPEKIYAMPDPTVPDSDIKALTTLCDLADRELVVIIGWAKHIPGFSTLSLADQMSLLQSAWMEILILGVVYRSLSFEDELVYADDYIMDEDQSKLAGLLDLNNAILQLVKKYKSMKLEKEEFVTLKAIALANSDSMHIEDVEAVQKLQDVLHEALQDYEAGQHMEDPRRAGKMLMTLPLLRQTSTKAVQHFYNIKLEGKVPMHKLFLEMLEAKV
Answer in nM, number only, no unit symbol.

Noted IC50 for CN(C)CCOc1ccc(/C(=C(/CCCO)c2ccccc2)c2ccc(Br)cc2)cc1.Cl , tested on Estrogen-related receptor gamma (Homo sapiens): 117

Noted IC50 for CN(C)CCCOc1ccc(/C(=C(/CCCO)c2ccccc2)c2ccc(O)cc2)cc1.Cl , tested on Estrogen-related receptor gamma (Homo sapiens): 90

----------
The following compounds each carry a recorded log10 of IC50 for Estrogen-related receptor gamma (Homo sapiens).
// units: nM (pre-log); metric: IC50; scale: log10

Reported log10 of IC50 ( CN(C)CCCOc1ccc(/C(=C(/CCCO)c2ccccc2)c2ccc(O)cc2)cc1.Cl ) = 1.76

Reported log10 of IC50 ( CN(C)CCOc1ccc(/C(=C(/CCC(F)F)c2ccccc2)c2ccc(O)cc2)cc1.Cl ) = 2.05

Reported log10 of IC50 ( CNCCOc1ccc(/C(=C(/CCCO)c2ccccc2)c2ccc(O)cc2)cc1.Cl ) = 2.27

Reported log10 of IC50 ( CN(C)CCOc1ccc(/C(=C(/CCCO)c2ccccc2)c2ccc(Br)cc2)cc1.Cl ) = 2.86

Reported log10 of IC50 ( CN(C)CCOc1ccc(/C(=C(/CCCF)c2ccccc2)c2ccc(O)cc2)cc1.Cl ) = 1.68

Reported log10 of IC50 ( Cc1ccc(/C(=C(\CCCO)c2ccccc2)c2ccc(OCCN(C)C)cc2)cc1.Cl ) = 2.83

Reported log10 of IC50 ( CCN(CC)CCOc1ccc(/C(=C(/CCCO)c2ccccc2)c2ccc(O)cc2)cc1.Cl ) = 1.90

----------
Method notes: in vitro
Experimental parameters: human, liver microsomes
Description: Metabolic stability in human liver microsomes assessed as compound remaining at 1 uM after 30 mins in presence of NADPH by LC-MS/MS analysis
Observation type: remaining at 0.5 h, 1 µM (%)
Answer in %, number only, no unit symbol.

Reported remaining at 0.5 h, 1 µM ( CN(C)CCOc1ccc(/C(=C(/CCCF)c2ccccc2)c2ccc(O)cc2)cc1.Cl ) = 72

Reported remaining at 0.5 h, 1 µM ( CCN(CC)CCOc1ccc(/C(=C(/CCCO)c2ccccc2)c2ccc(O)cc2)cc1.Cl ) = 18

Reported remaining at 0.5 h, 1 µM ( Cc1ccc(/C(=C(\CCCO)c2ccccc2)c2ccc(OCCN(C)C)cc2)cc1.Cl ) = 59

----------
I'd be grateful if you could share measured IC50 for these entries.
Answer in µM, number only, no unit symbol.

Noted IC50 for CN(C)CCOc1ccc(/C(=C(/CCCO)c2cccc(F)c2)c2ccc(Br)cc2)cc1 , tested on Estrogen-related receptor gamma (Homo sapiens): 1.1

Noted IC50 for CN(C)CCOc1ccc(/C(=C(/CCCO)c2ccc3cnn(C)c3c2)c2ccc(Br)cc2)cc1 , tested on Estrogen-related receptor gamma (Homo sapiens): 5.3

Noted IC50 for CN(C)CCOc1ccc(/C(=C(/CCCF)c2ccccc2)c2ccc(Br)cc2)cc1 , tested on Estrogen-related receptor gamma (Homo sapiens): 0.48

Noted IC50 for COc1ccc(/C(=C(\CCCO)c2ccccc2)c2ccc(OCCN(C)C)cc2)cc1 , tested on Estrogen-related receptor gamma (Homo sapiens): 1

Noted IC50 for CCN(CC)CCOc1ccc(/C(=C(/CCCO)c2ccccc2)c2ccc(O)cc2)cc1.Cl , tested on Estrogen-related receptor gamma (Homo sapiens): 0.18

Noted IC50 for Cc1ccc(/C(=C(\CCCO)c2cccc(F)c2)c2ccc(OCCN(C)C)cc2)cc1 , tested on Estrogen-related receptor gamma (Homo sapiens): 0.5

Noted IC50 for CNCCOc1ccc(/C(=C(/CCCO)c2ccccc2)c2ccc(O)cc2)cc1.Cl , tested on Estrogen-related receptor gamma (Homo sapiens): 0.19

Noted IC50 for Cc1ccc(/C(=C(\CCCO)c2ccc3cnn(C)c3c2)c2ccc(OCCN(C)C)cc2)cc1 , tested on Estrogen-related receptor gamma (Homo sapiens): 5.6

Noted IC50 for CN(C)CCOc1ccc(/C(=C(/CCCO)c2ccccc2)c2ccc(C(F)(F)F)cc2)cc1 , tested on Estrogen-related receptor gamma (Homo sapiens): 1.3

Noted IC50 for CN(C)CCOc1ccc(/C(=C(/CCCO)c2ccccc2)c2ccc(F)cc2F)cc1 , tested on Estrogen-related receptor gamma (Homo sapiens): 6.7

Noted IC50 for CN(C)CCOc1ccc(/C(=C(/CCCO)c2ccccc2)c2ccc(Cl)cc2)cc1 , tested on Estrogen-related receptor gamma (Homo sapiens): 0.52

Noted IC50 for CN(C)CCOc1ccc(/C(=C(/CCCO)c2ccccc2)c2ccccc2)cc1 , tested on Estrogen-related receptor gamma (Homo sapiens): 1.5

Noted IC50 for CN(C)CCOc1ccc(/C(=C(/CCCF)c2ccccc2)c2ccc(O)cc2)cc1.Cl , tested on Estrogen-related receptor gamma (Homo sapiens): 0.02

Noted IC50 for Cc1ccc(/C(=C(\CCCO)c2ccccc2)c2ccc(OCCN(C)C)cc2)cc1.Cl , tested on Estrogen-related receptor gamma (Homo sapiens): 0.27

Noted IC50 for CN(C)CCOc1ccc(/C(=C(/CCCO)c2ccccc2)c2ccc(F)cc2)cc1 , tested on Estrogen-related receptor gamma (Homo sapiens): 3.9

Noted IC50 for CN(C)CCOc1ccc(/C(=C(/CCC(F)F)c2ccccc2)c2ccc(Br)cc2)cc1 , tested on Estrogen-related receptor gamma (Homo sapiens): 0.89
